Molecular target: 5-HT2A (Homo sapiens, UniProt P28223)
Sequence (P28223 whole entry): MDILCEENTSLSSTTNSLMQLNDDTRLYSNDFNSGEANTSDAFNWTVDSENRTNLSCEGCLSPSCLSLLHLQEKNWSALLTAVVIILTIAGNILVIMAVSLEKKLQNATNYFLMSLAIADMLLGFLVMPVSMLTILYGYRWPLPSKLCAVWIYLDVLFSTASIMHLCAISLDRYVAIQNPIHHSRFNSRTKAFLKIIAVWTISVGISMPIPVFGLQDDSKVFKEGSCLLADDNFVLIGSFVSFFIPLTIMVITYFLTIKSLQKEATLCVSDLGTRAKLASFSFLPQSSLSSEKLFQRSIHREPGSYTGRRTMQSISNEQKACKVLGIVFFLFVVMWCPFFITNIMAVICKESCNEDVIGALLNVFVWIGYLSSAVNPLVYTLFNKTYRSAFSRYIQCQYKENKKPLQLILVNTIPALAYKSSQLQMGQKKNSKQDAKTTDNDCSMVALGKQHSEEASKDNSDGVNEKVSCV
Experiment: 5-HT2 Gq-Dissociation BRET assay
Format: cell-based
Set-up: expressed in transfected cells; host or cells: HEK293T
Conditions: read-out: % efficacy vs 5-HT@ 100%, 5-HT2A
Structures can show the parent of a compound that is named as a salt.
Binning scheme for Emax: lower bin = under 40%, middle bin = from 40% up to 60%, upper bin = 60% and over

Please review the following examples before continuing.
COMPOUND	CLASS NAME
CCCn1cc(CCN(C)C)c2c(O)cccc21	lower bin
CN(C)CCc1cn(CC2CC2)c2cccc(O)c12	lower bin
CN(C)CCc1cn(C2CCC2)c2cccc(O)c12	middle bin
CCN(C)CCc1cn(C)c2cccc(O)c12 [Example 12, hydrochloride]	upper bin
CCCCn1cc(CCN(C)C)c2c(O)cccc21 [Example 6, reference compound]	lower bin
Cn1cc(CCNCC(F)F)c2c(O)cccc21 [Example 22, hydrochloride]	upper bin

Alright, here's another compound for you.
Request: Which bin should I file CN(CCc1cn(C)c2cccc(O)c12)CC1CC1 [Example 16, hydrochloride] under?
Result: middle bin
